system: Gastric fundus smooth muscle; test: Myorelaxant activity in noradrenaline-precontracted New Zealand Oryctolagus cuniculus (rabbit) gastric fundus smooth muscle strips in presence of KV blocker 4-aminopyridine; details: Stomach
The source made the active and inactive calls. The calls are words filed in the database; no cut-off is given here.
parameter: Emax

{"columns": ["compound", "reading"],
 "data": [
  ["CC1CC(=O)C2=C(C1)NC1=C(C(=O)CC(C)C1)C2c1ccc(F)cc1 (stereo not given)", "21.8%"],
  ["CC1CC(=O)C2=C(C1)NC1=C(C(=O)CC(C)C1)C2c1ccc(C(F)(F)F)cc1 (stereo not given)", "14%"],
  ["CC1CC(=O)C2=C(C1)NC1=C(C(=O)CC(C)C1)C2c1cccc(C#N)c1 (stereo not given)", "32.3%"],
  ["CC1CC(=O)C2=C(C1)NC1=C(C(=O)CC(C)C1)C2c1ccc([N+](=O)[O-])cc1 (stereo not given)", "51.4%"],
  ["CC1CC(=O)C2=C(C1)NC1=C(C(=O)CC(C)C1)C2c1ccccc1F (stereo not given)", "inactive"],
  ["CC1CC(=O)C2=C(C1)NC1=C(C(=O)CC(C)C1)C2c1ccccc1[N+](=O)[O-] (stereo not given)", "inactive"],
  ["CC1CC(=O)C2=C(C1)NC1=C(C(=O)CC(C)C1)C2c1cccc([N+](=O)[O-])c1 (stereo not given)", "54.1%"],
  ["CC1CC(=O)C2=C(C1)NC1=C(C(=O)CC(C)C1)C2c1ccccc1C(F)(F)F (stereo not given)", "inactive"],
  ["CC1CC(=O)C2=C(C1)NC1=C(C(=O)CC(C)C1)C2c1ccc(C#N)cc1 (stereo not given)", "51.1%"],
  ["CC1CC(=O)C2=C(C1)NC1=C(C(=O)CC(C)C1)C2c1cccc(C(F)(F)F)c1 (stereo not given)", "inactive"]
]}

###

tested on: Gastric fundus smooth muscle; assay: Myorelaxant activity in noradrenaline-precontracted New Zealand Oryctolagus cuniculus (rabbit) gastric fundus smooth muscle strips in presence of large-conductance Ca2+-activated K+ channel blocker iberiotoxin; assay type: functional; details: Stomach
The source made the active and inactive calls. The rule behind the calls is not given here.
parameter: Emax

{"columns": ["molecule", "parameter", "reading"],
 "data": [
  ["CC1CC(=O)C2=C(C1)NC1=C(C(=O)CC(C)C1)C2c1ccc([N+](=O)[O-])cc1 (stereo not given)", "Emax", "82.5%"],
  ["CC1CC(=O)C2=C(C1)NC1=C(C(=O)CC(C)C1)C2c1cccc(C(F)(F)F)c1 (stereo not given)", "Emax", "inactive"],
  ["CC1CC(=O)C2=C(C1)NC1=C(C(=O)CC(C)C1)C2c1ccc(F)cc1 (stereo not given)", "Emax", "39.1%"],
  ["CC1CC(=O)C2=C(C1)NC1=C(C(=O)CC(C)C1)C2c1cccc(C#N)c1 (stereo not given)", "Emax", "30.9%"],
  ["CC1CC(=O)C2=C(C1)NC1=C(C(=O)CC(C)C1)C2c1ccccc1C(F)(F)F (stereo not given)", "Emax", "inactive"],
  ["CC1CC(=O)C2=C(C1)NC1=C(C(=O)CC(C)C1)C2c1ccccc1[N+](=O)[O-] (stereo not given)", "Emax", "inactive"],
  ["CC1CC(=O)C2=C(C1)NC1=C(C(=O)CC(C)C1)C2c1cccc([N+](=O)[O-])c1 (stereo not given)", "Emax", "54.4%"],
  ["CC1CC(=O)C2=C(C1)NC1=C(C(=O)CC(C)C1)C2c1ccc(C#N)cc1 (stereo not given)", "Emax", "52%"],
  ["CC1CC(=O)C2=C(C1)NC1=C(C(=O)CC(C)C1)C2c1ccccc1F (stereo not given)", "Emax", "inactive"],
  ["CC1CC(=O)C2=C(C1)NC1=C(C(=O)CC(C)C1)C2c1ccc(C(F)(F)F)cc1 (stereo not given)", "Emax", "43.3%"]
]}
